test: BSK_MyoF_SRB: Viability Assessment in the BioMAP Diversity Plus: MyoF Assay (AID 2284267); settings: primary human lung fibroblasts;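 note: total protein by SRB absorbance in parallel cultures as cytotoxicity measure; cells assessed 24 h after compound addition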
Active and inactive are the calls of the source. Rule for the calls: active = hit-call score of the fitted dose curve at least 0.9, where 1 is the maximum; inactive = score below 0.9.
Select the correct class. Options are yes (active), no (inactive) and nothing else.

Input: Which result was noted for this compound in the test: Cc1ccc(C(=O)c2ccccc2)cc1
Output: no

Input: Which result was noted for this compound in the test: CN(CCO)S(=O)(=O)C(F)(F)C(F)(F)C(F)(F)C(F)(F)C(F)(F)C(F)(F)C(F)(F)C(F)(F)F
Output: no

Input: Which result was noted for this compound in the test: O=C(CC(=O)C(F)(F)C(F)(F)C(F)(F)F)c1cccs1
Output: no

Input: Which result was noted for this compound in the test: C=CC(=C)CC/C=C(\C)CCC=C(C)C
Output: no

Input: Which result was noted for this compound in the test: Cc1ccc(N=Nc2c(O)ccc3ccccc23)c(C)c1
Output: no

Input: Which result was noted for this compound in the test: C=CC(=O)OCCC(F)(F)C(F)(F)C(F)(F)C(F)(F)C(F)(F)C(F)(F)C(F)(F)C(F)(F)F
Output: no

Input: Which result was noted for this compound in the test: O=C(O)CCC(F)(F)C(F)(F)C(F)(F)C(F)(F)C(F)(F)F
Output: no

Input: Which result was noted for this compound in the test: CCCCCc1ccc(O)cc1
Output: yes

Input: Which result was noted for this compound in the test: O=P(O)(O)CCC(F)(F)C(F)(F)C(F)(F)C(F)(F)C(F)(F)C(F)(F)C(F)(F)C(F)(F)F
Output: no

Input: Which result was noted for this compound in the test: COc1cccc(O)c1
Output: no

Provenance of the data: PubChem BioAssay (EPA / NIEHS)
